# Test system: Huh-7 HCV replicon cells (1b replicon)
# protocol-summary: anti-HCV activity in Huh-7 cell line harboring a HCV replicon (luciferase readout)
# Format: cell-based
# experimental-setup: Hepatitis C virus, Huh-7, 72 h, inhibition of viral replication, Huh-7 HCV replicon cells, 3 days; read-out: EC50
metric-name: EC50

* CC(C)[C@@H]1OCCC/C=C/c2cc3cc(ccc3cn2)[C@@H](C)OC(=O)[C@@H]2CCCN(N2)C(=O)[C@H](C)NC1=O [Compound 23] | < 1000 nM
* CC(C)[C@@H]1OC(=O)C2(/C=C/c3ccc4ccc(nc4c3)[C@@H](C)NC(=O)[C@@H]3CCCN(N3)C(=O)[C@H](C)NC1=O)CCOC2 (some centres unmarked) [Compound 73] | < 1000 nM
* CC(C)[C@@H]1OC(=O)[C@@](C)(CO)CCc2ccc3ccc(nc3c2)[C@@H](C)NC(=O)[C@@H]2CCCN(N2)C(=O)[C@H](C)NC1=O [Compound 30] | < 1000 nM
* C[C@@H]1NC(=O)[C@H](C)OC(=O)C(C)(C)/C=C/c2ccc3ccc(nc3c2)[C@@H](C)NC(=O)[C@@H]2CCCN(N2)C1=O [Compound 61] | 1100 to 10000 nM
* CC(C)[C@H]1C(=O)N[C@@H](C)C(=O)N2CCC[C@H](N2)C(=O)O[C@H](C)c2ccc3ccc(cc3n2)/C=C/C(C)(C)CN1C [Compound 26] | < 1000 nM
* C[C@@H]1NC(=O)[C@H](C2CC2)OC(=O)C(C)(C)/C=C/c2ccc3ccc(nc3c2)[C@@H](C)NC(=O)[C@@H]2CCCN(N2)C1=O [Compound 78] | < 1000 nM
* CC(=O)O[C@H]1CC[C@@]2(/C=C/c3ccc4ccc(nc4c3)[C@@H](C)NC(=O)[C@@H]3CCCN(N3)C(=O)[C@H](C)NC(=O)[C@H](C(C)C)OC2=O)CC1 [Compound 110] | < 1000 nM
* COCC1NC(=O)C(C(C)C)OC(=O)C(C)(C)C=Cc2ccc3ccc(nc3c2)C(C)NC(=O)C2CCCN(N2)C1=O (single isomer, unassigned) [Compound 39] | 1100 to 10000 nM
* CCC(=O)O[C@H]1CC[C@@]2(/C=C/c3ccc4ccc(nc4c3)[C@@H](C)NC(=O)[C@@H]3CCCN(N3)C(=O)[C@H](C)NC(=O)[C@H](C(C)C)OC2=O)CC1 [Compound 109] | < 1000 nM
* CC(C)[C@@H]1OC(=O)C2(/C=C/c3ccc4ccc(nc4c3)[C@@H](C)NC(=O)[C@@H]3CCCN(N3)C(=O)[C@H](C)NC1=O)CCN(C(=O)OC(C)(C)C)CC2 [Compound 84] | 1100 to 10000 nM
* CC(C)[C@@H]1N[C@@H](C(F)(F)F)C(C)(C)/C=C/c2ccc3ccc(nc3c2)[C@@H](C)OC(=O)[C@@H]2CCCN(N2)C(=O)[C@H](C)NC1=O [Compound 32] | 1100 to 10000 nM

----------
# Test system: Huh-7 HCV replicon cells (1b replicon)
# protocol-summary: anti-HCV activity in Huh-7 cell line harboring a HCV replicon (luciferase readout)
# Assay type: cell-based
# experimental-setup: Hepatitis C virus, Huh-7, read-out: Replicon 1b % inhibition at 1 μM, 1b replicon, 1 μM compound
Listing: inhibition at 1 µM of selected compounds
metric-name: inhibition at 1 µM (%)

* CC(C)[C@@H]1OC(=O)C(CF)(CF)/C=C/c2ccc3ccc(nc3c2)[C@@H](C)NC(=O)[C@@H]2CCCN(N2)C(=O)[C@H](C)NC1=O | 100
* CC(C)[C@@H]1OC(=O)[C@@](C)(CO)/C=C/c2ccc3ccc(nc3c2)[C@@H](C)NC(=O)[C@@H]2CCCN(N2)C(=O)[C@H](C)NC1=O | 99
* C[C@@H]1NC(=O)[C@H](C2CCCC2)OC(=O)C2(/C=C/c3ccc4ccc(nc4c3)[C@@H](C)NC(=O)[C@@H]3CCCN(N3)C1=O)COCOC2 | 100
